Tested on: HepG2 cells
Experiment: High content imaging cytotoxicity parameters: selected cell count per valid field (SCC) and CMFDA cytoplasm average intensity
Conditions: human
readout-label: CMFDA +S9 highest conc. <50% cytotox. over control (µM)
One number for each entry, in µM.

Below, each entry is followed by its recorded CMFDA +S9 highest conc. <50% cytotox. over control result.
compound	measured-number
c1ccncc1 [Pyridine]	1000
C=CC(=O)OCC [Ethyl acrylate]	1000
O=P1(N(CCCl)CCCl)NCCCO1 (stereo not shown) [Cyclophosphamide]	62.5
Nc1ccc(Cl)cc1 [p-chloroaniline]	1000
c1ccc2c(c1)cc1ccc3cccc4ccc2c1c34 [Benzo[a]pyrene]	125
Oc1ccc(Cl)cc1Cl [2,4-Dichlorophenol]	1000

For the 4 compounds below, give their CMFDA +S9 highest conc. <50% cytotox. over control values.
1. O=C1NS(=O)(=O)c2ccccc21.[Na] [Sodium saccharin]
2. CCCCC(CC)COC(=O)c1ccccc1C(=O)OCC(CC)CCCC (stereo not shown) [Di-(2-ethylhexyl)phthalate]
3. C[N+](C)(C)CCCl.[Cl-]
4. Cc1c2ccccc2c(C)c2c1ccc1ccccc12 [7,12-Dimethylbenz[a]anthracene]

1000
1000
1000
1000

====

Tested on: HepG2 cells
Test: High content imaging cytotoxicity parameters: selected cell count per valid field (SCC) and CMFDA cytoplasm average intensity
Details: human
readout-label: CMFDA −S9 highest conc. <50% cytotox. over control (µM)
Give bare numbers, in µM.

A selection of reference data follows.
compound	unit-text	measured-number
Nc1ccc(Cl)cc1 [p-chloroaniline]	µM	1000
O=C1NS(=O)(=O)c2ccccc21.[Na] [Sodium saccharin]	µM	1000
Oc1ccc(Cl)cc1Cl [2,4-Dichlorophenol]	µM	1000
C=CC(=O)OCC [Ethyl acrylate]	µM	1000
CCCCC(CC)COC(=O)c1ccccc1C(=O)OCC(CC)CCCC (stereo not shown) [Di-(2-ethylhexyl)phthalate]	µM	1000
Cc1c2ccccc2c(C)c2c1ccc1ccccc12 [7,12-Dimethylbenz[a]anthracene]	µM	250
C[N+](C)(C)CCCl.[Cl-]	µM	1000
c1ccc2c(c1)cc1ccc3cccc4ccc2c1c34 [Benzo[a]pyrene]	µM	125

Dear colleague, could you please provide CMFDA −S9 highest conc. <50% cytotox. over control for the compounds listed below?
1. O=P1(N(CCCl)CCCl)NCCCO1 (stereo not shown) [Cyclophosphamide]
2. c1ccncc1 [Pyridine]

[1000, 1000]

====

Provide the reported CMFDA −S9 highest conc. <50% cytotox. over control of each item.
System: HepG2 cells
Assay: High content imaging cytotoxicity parameters: selected cell count per valid field (SCC) and CMFDA cytoplasm average intensity
Details: HepG2 cells, 48 h, CMFDA cytoplasm average intensity, without metabolic activation (−S9)
Where a name gives a salt, the structure may show the parent alone.
Answers are plain numbers, in µM.

Please state, for each entry, its recorded CMFDA −S9 highest conc. <50% cytotox. over control.
1. [Cl][Cd][Cl] [Cadmium chloride]
2. CC(=O)Nc1ccc2c(c1)Cc1ccccc1-2
3. Cn1c(N)nc2ncc(-c3ccccc3)cc21 [PhIP•HCl]

[62.5, 1000, 500]

====

Tested on: HepG2 cells
Assay: High content imaging cytotoxicity parameters: selected cell count per valid field (SCC) and CMFDA cytoplasm average intensity
Settings: human, 48 h
readout-label: SCC −S9 highest conc. <50% cytotox. over control
Provide a numeric answer, followed by its unit.

molecule	result
CC(=O)O[C@H]1C(=O)[C@@]2(C)[C@H]([C@H](OC(=O)c3ccccc3)[C@]3(O)C[C@H](OC(=O)[C@H](O)[C@@H](NC(=O)c4ccccc4)c4ccccc4)C(C)=C1C3(C)C)[C@]1(OC(C)=O)CO[C@@H]1C[C@@H]2O	1000 µM
O=C1CCCCC1	1000 µM
NC(=S)N(C1CCCCC1)C1CCCCC1	500 µM

Please look at the following molecule next.
Could you please provide reported SCC −S9 highest conc. <50% cytotox. over control for CC1(C)S[C@@H]2[C@H](NC(=O)[C@H](N)c3ccccc3)C(=O)N2[C@H]1C(=O)O [Ampicillin trihydrate] ? Thanks! 1000 µM

====

System: HepG2 cells
Assay: High content imaging cytotoxicity parameters: selected cell count per valid field (SCC) and CMFDA cytoplasm average intensity
Settings: HepG2 cells, 48 h, CMFDA cytoplasm average intensity, without metabolic activation (−S9)
Description: HepG2 cells (Order No. HB-8065, Lot. 58483209, ATCC, Manassas, USA) were cultured in DMEM/F12 with L-Glutamine and 15 mM Hepes supplemented with 10% (v/v) FBS, 1% (v/v) penicillin (10 kU/ml)/streptomycin (10 mg/ml) solution, 0.1% (v/v) gentamicin (50 mg/ml), and 1 mM sodium pyruvate at 37° C. and 5% CO2 in culture flasks. […] Image acquisition was performed on the ArrayScan VTI HCS Reader (Cellomics, Pittsburgh, USA) using a 20× objective. […]
Please go through the items and note down their CMFDA −S9 highest conc. <50% cytotox. over control.
One number for each entry, in µM.

Illustrative cases are given below, each with its answer.
molecule	experimental-target	unit-text	measured-number
Nc1nc(N)nc(N)n1	HepG2 cells	µM	1000
CCCCC(CC)COP(=O)(OCC(CC)CCCC)OCC(CC)CCCC (stereo not drawn) [Tris(2-ethylhexyl)phosphate]	HepG2 cells	µM	7.813
O=[As]O [Sodium arsenite]	HepG2 cells	µM	62.5
NC(N)=O	HepG2 cells	µM	1000
Cn1c(N)nc2c3cccnc3ccc21 [IQ, 2-Amino-3methylimidazo[4,5-f]quinoline]	HepG2 cells	µM	1000

From here, focus on the item given below.
Return CMFDA −S9 highest conc. <50% cytotox. over control for the following molecule: CCN(N=O)C(N)=O 1000

====

Record form. Attribute: CMFDA +S9 highest conc. <50% cytotox. over control. Fill in for each entry.
Tested on: HepG2 cells
Experiment: High content imaging cytotoxicity parameters: selected cell count per valid field (SCC) and CMFDA cytoplasm average intensity
Details: human, 48 h
Numbers only, in µM.

Here's what some known entries look like.
compound	measured-number
NC(=S)N(C1CCCCC1)C1CCCCC1	500
Nc1nc[nH]n1	1000
CC1(C)S[C@@H]2[C@H](NC(=O)[C@H](N)c3ccccc3)C(=O)N2[C@H]1C(=O)O [Ampicillin trihydrate]	1000
C=CCc1ccc(O)c(OC)c1	125
CC(=O)O[C@H]1C(=O)[C@@]2(C)[C@H]([C@H](OC(=O)c3ccccc3)[C@]3(O)C[C@H](OC(=O)[C@H](O)[C@@H](NC(=O)c4ccccc4)c4ccccc4)C(C)=C1C3(C)C)[C@]1(OC(C)=O)CO[C@@H]1C[C@@H]2O	1000
CCc1cc(C(N)=S)ccn1 [Ethionamide]	1000
CC(=O)[C@H]1CC[C@H]2[C@@H]3CCC4=CC(=O)CC[C@]4(C)[C@H]3CC[C@]12C	250
CC(C)C=O	1000

Please report CMFDA +S9 highest conc. <50% cytotox. over control for every entry that follows.
1. CN(C)C(=O)Nc1cccc(C(F)(F)F)c1
2. c1ccc2c(c1)ccc1ccccc12
3. Oc1ccc(O)cc1 [Hydroquinone]
4. CCCOC(=O)c1cc(O)c(O)c(O)c1 [Propyl gallate]
5. Oc1cccc(O)c1 [1,3-Dihydroxybenzene (resorcinol), 1,3-Dihydroxybenzene]

[1000, 1000, 1000, 1000, 500]

====

Test system: HepG2 cells
Assay: High content imaging cytotoxicity parameters: selected cell count per valid field (SCC) and CMFDA cytoplasm average intensity
Settings: human, 48 h
readout-label: CMFDA −S9 highest conc. <50% cytotox. over control
Express your answer as a number followed by its unit.

compound	experimental-target	result
COc1cc([C@@H]2c3cc4c(cc3[C@@H](O[C@@H]3O[C@@H]5CO[C@@H](C)O[C@H]5[C@H](O)[C@H]3O)[C@H]3COC(=O)[C@H]23)OCO4)cc(OC)c1O [Etoposide]	HepG2 cells	1000 µM
CCc1cc(C(N)=S)ccn1 [Ethionamide]	HepG2 cells	1000 µM
CCCOC(=O)c1cc(O)c(O)c(O)c1 [Propyl gallate]	HepG2 cells	1000 µM

Provide CMFDA −S9 highest conc. <50% cytotox. over control values for the following items, in order.
1. OCCNCCO
2. Oc1ccc(O)cc1 [Hydroquinone]
3. Oc1cccc(O)c1 [1,3-Dihydroxybenzene (resorcinol), 1,3-Dihydroxybenzene]
4. CC(C)C=O
5. CC(C)(C)c1cc(O)ccc1O [Tertiary-butylhydroquinone]
6. COc1cc(/C=C/C(=O)CC(=O)/C=C/c2ccc(O)c(OC)c2)ccc1O

["1000 µM", "250 µM", "1000 µM", "1000 µM", "125 µM", "31.25 µM"]

====

Test system: HepG2 cells
Test: High content imaging cytotoxicity parameters: selected cell count per valid field (SCC) and CMFDA cytoplasm average intensity
Conditions: human, 48 h
Field: CMFDA +S9 highest conc. <50% cytotox. over control. Provide a value for each of the compounds that follow.
One number for each entry, in µM.

compound	measured-number
OCCNCCO	1000
OC[C@@H](O)[C@@H](O)[C@H](O)[C@H](O)CO	1000
OCc1ccccc1	1000
COS(C)(=O)=O [Methylmethane sulfonate]	250

Could you now look at the following compound, please?
Report CMFDA +S9 highest conc. <50% cytotox. over control for O=C(N[C@H](CO)[C@H](O)c1ccc([N+](=O)[O-])cc1)C(Cl)Cl 1000
